EXPERIMENTAL_SYSTEM: acetylcholine receptor
ASSAY_DETAILS: SPR, receptor immobilized on CM5 chip, peptide 10 uM
ATTRIBUTE_MEASURED: Binding affinity (RU)

# BINDER, Binding affinity (RU)
rows = [
    ("KKQVSK [6mer-1-273]", 137),
]

a = KGRCKK [6mer-2-415]
b = RRASDR [6mer-1-923]
(Q) Given the listed items, does a or b have the lesser reported Binding affinity (RU)? Provide the label of your selected option as the answer.
(A) b

Cited source for all entries: patent US20250011363A1
